assay: yeast display, Sf9 membrane polyspecificity reagent, FACS + sequencing; frameworks hold sequencing errors
measured quantity: polyreactivity (PSR sort gate)

QVQLVESGGGLVQAGGSLRLSCAASGSIFAYNAMGWYIQAPGKERELVATITVRGGSTYYADSVKGRFTISRDNAKNTFYLQMNSLKPEDTAVYFCAVRTYRYYRYNYWGQGTQVTVSS    high polyreactivity
QVQLVESGGGLVQAGGSLRLSCAASGSTFPWNAMGWYRQAPGKERELVAAINYGNGSTYYADSVKGRFTISRDNAKNTVYLQMNSLKPEDTAVYYCNADYTGTRTDSVTPEYEYCGQGTQVTVSS    low polyreactivity
QFQLVESGGGLVQAGGSLRLSCAASGNTFINYAMGWYRQATRKEREVVAAISKRGGSTYYADSVKGRFTISRDNAKNTVYLQMNSLKPEDTAVYYCAARLKTYKEGDYCGQGTQVTVSS    high polyreactivity
QVQLVESGGGLVQEGGSLRLICAASGSTFYDYAMGWYRQAPGKERELVAAINWSSDTTYYADSVKGRFTISRDNAKNTVYLQMNSMKPEDTAVYYCATDSAYRGYDYWGQGTQVTVSS    low polyreactivity
QVQLVESGGGLLQAGGSLRLSCAASGRIFGGYDMGWYRQAPGKERELVASISYSGGTTYYADSVKGRFTISRDNAKNTVYLQMNSLKPEDSAVYYCAALSQHNDSGYDYWGQGTQVTVSS    high polyreactivity

Query polyreactivity (PSR sort gate) for QVQLVESGGGLVQAGGSLRLSCAASGRTFWGYAMGWYRQAPGKERELVATISSTGSTNYAESVKGRFTISRDNAKNTVYFQMNSLKPEATAVYYCNAKRHVYRGWYQRYDYWGQGTQVTVSS
high polyreactivity

Using the record for QVQLVESGGGLVQAGGSLRLSCAASGRIFLGNALGWYRQPPGNERELVAAITYSGRSTYYADSVKGRFTISRDHAKNTVYLQMNSLKPEDTAVYFCAARQYWTTDLPFQRYYYWGQGTQVTVSS , state its measured polyreactivity (PSR sort gate).
low polyreactivity

Read off the recorded polyreactivity (PSR sort gate) for QDQLVESGGGLVQAGGSLRLSCAASGRTLGKNAMGWYRQAPGTERELVAAISSSGGSTYYADSVKGRFTISRDNAKNTVYLQMNSLKPEDTAVYYCAAKYFRKYSQIGPDMYYWGQGTQVTVSS
high polyreactivity

Quickly give me recorded polyreactivity (PSR sort gate) for QVQLVESGGGLVQAGGSLRLSCAASGRIFPGYTMGWYRQAPGKERELVAGISRSGGRTYYADSVKGRFTISRDNAKNTVYLQMNSLKPEDTAVYYCAADGYPGRRYTGMDYWGQGTQVTVSS
high polyreactivity

Please supply the value of reported polyreactivity (PSR sort gate) for the item QVQLVESGGGLVQAGGSLRLSCAASGSIFSYYAMGWYRQAPGKERELVAAISRSGASTSYADSVKGRFTISRDNAKNTVYLQMNSLKPEDTAVYYCAKRIYWRGSWGRYYYWGQGTQVTVSS
high polyreactivity

Report measured polyreactivity (PSR sort gate); entry is QVQLVESGGGLVQAGGSLRLSCAASGSIFKYYAMGWYRQAPGKERELVAAINSGGDTYYADSVKGRFTISRDNAKNTVYLQMNSLKPEDTAVYYCAAYGYAGYAHRDMDYWGQGSQVTVSS
low polyreactivity

###

assay: yeast display, Sf9 membrane polyspecificity reagent, FACS + sequencing; frameworks hold sequencing errors
measured quantity: polyreactivity (PSR sort gate)

// known answers, use as guide
QVQLVESGGGLVQAGGSLRLSCDASGRIIAFYVMGWYRQAPGKERELVAAITSGGNTNYADSVKGRFTISRDNAKNTVYLQMNSLKPEDTAVYYCAVPVLTYVSDYYWGQGTQVTVSS    low polyreactivity
QVQLVESGGGLVQAGGSLRLSCAASGRTFYYYAMGWNRQAPGKEREFVASITWRGGRTYYADSVKGRFTISRDYAKNTVYLQMNSLKPEDTAVYYCAADGSYAIGGYGYWGQGTQVTVSS    high polyreactivity
QVQLVESGGGLVQAGGSLRLSCAASGFTFTYYAMGWYRQAPGNERELVAAISSGGNTYYADSVKGRFTISRDNAKNTVYLQMNSLKPEDTAVYYCAAQYSKRAWSWTYAYSYFRFDYWGQGTQVTVSS    low polyreactivity
QVQLVESGGGLVQAGGSLRLRCAASGRIYCDNATGRYRQAPGKESELVAPISDSVVITYYADSVKGRFTISRDNAKNTLYVQMNSLKPEDTAVYYCAADKRGTVYLSSFWMDYWGQGTQVTVSS    low polyreactivity
QVQLVESGGGLVQAGGSLRLSCPASGSTFKRNAMGWYRQAPGKERELVATITRRGGSTYADSVNGRFTISRDNAKNTVYLQMNSLKAEDTAVYYCARDGFSAGMDYWGQGTQVTVSS    low polyreactivity
QVQLVESGGGLVQEGGSLSLSCAASGFTFYYYAMGLYRQAPGKERELVASISWRGGSTYYADSVKGRFTISRDNAKNTVYLQMNSLKPEDTAVYYCAAQKRGSPGYRRDYWGQGTQVAVSS    high polyreactivity
QLQLVESGGGLVQAGGSLRLSCAASGFIFGLYDMGWYREATGKERELVAAISWSGGSTYYADSVKGRFTISRDNAKNTVYLQMNSLKPADTAVYYCNKDLYADGQYNYDYWGLGTQVTVSS    low polyreactivity
QVQLVESGGGLVQAGGSLRLSCAASGSIFRYYVMGWYRQAPGKERELVAAITKSAGSTYYADSVKGRFTISRDNAKNTVYLQMNSLKPEDTAVYYCAARRVSRGNSKFDYYWGQGTQVTVSS    high polyreactivity
QVQLVESGGGLVQAGGSLRLSCAASGRTFYKYVMVWYRQAPGKERELVAAITRSGGRTYYADSVKGRFTISRDNAKNTVYLHMNSLKPEDTAVYYCAAASYSGHGRYDYWGQGTQVTVSS    high polyreactivity
QVQLVESGGGLVQAGGSLRLSCAASGNIFIYNAMGWYRQAPGQERELVAAISVSGGDTYYADSVKGRFTISRDNAKNTVYLQMNSLKPEDTAVYYCKASYVLTGQRYGYWGQGTQVTVSS    low polyreactivity

Retrieve polyreactivity (PSR sort gate) measured for QVQLVESGGGLVQAGGSLRLSCAASGSTFHYYAMGWYRQAPGKERELVAAIRTSGGSTYYADSVKGRFTISRDNAKNTVYLQMNSLKPEDTAVYYCNRVLGYPYGVDYWGQGTQVTVSS and print it.
high polyreactivity

Quote polyreactivity (PSR sort gate) reported for QVQLVESGGGLVQAGGSLRLSCAASGSIFSYNAMGWYRQAPGKERELVAAINNGGSTYYADSVKGRFTISRDNAKNTVYLQMNSLKPEDTAVYYCNTARRHCQTQGGDYWGQGTQVTVSS please.
high polyreactivity

Let me know recorded polyreactivity (PSR sort gate) for KVHLVESGGGLVQAGGSLRLSCAASGRIFRYYAMGWYRHAPGKERELVAAIRYLGASTYYADSVKGRFTISRDNAKNTVYLQMNSLKPEDTAVYYCNRTPRSKGNYWGQGTLVTVSS , thanks.
high polyreactivity

Please indicate polyreactivity (PSR sort gate) recorded for QVQLVESGGGLVQAGVSLRLSCAASGRTLRRTAMGWYRQAPGTERELVAAISSIGGSTYYADSVKGRFTISRDNAKITVYLQMNSLKPEDTAVYYCAADILIYPYSYDYYWGQGTQVTVSS
high polyreactivity

Check the records and state polyreactivity (PSR sort gate) for QVQLVESGGGLVQAGGSLRLSCAASGFIFADNAMGWYRQAPGKERELVAAINLGGGDTYYADSVKGRFTISRDNAKNTVYLQMNSLKPEDTAVYYCATVWFSEGYDYNHWGQGTQVTVSS
low polyreactivity

Return the recorded polyreactivity (PSR sort gate) value; entry: QVQLVESGGGLVQAGGSLRLSCAASGSTFGQNAMGWYRQAPGKERELVAAITRRGVSTYYADSVKGRFTISRDNAKNTVYLQMNSLKPEDTAVYYCAKRYHPNSPYDYWGQGTQVTVSS
low polyreactivity

Supply reported polyreactivity (PSR sort gate) belonging to this sequence: QVQLVESGGGLVQAGGSLRLSCAASGRTFSVNAMGWSRQAPGKERELVAAITYSGGGTYYADSVKGRFTISRDNAKNPVYLQMNSLKPEDTAVYYCAAPVYTWYHRYDYWGQGTQVTVSS
high polyreactivity

Return the recorded polyreactivity (PSR sort gate) value; entry: QVQLVESAGGLVQAGGSLRLICAASGRIFYLNAMGWYRQAPGKESELVAAINTSCGSTYADSVKWRFTISRDNAKNTVYLQMNSLKPEDTAVYYCNAYLAEVLPLGKGRLYDYWGQGTQVTVSS
low polyreactivity

These entries and their values trace back to the nanobody polyreactivity screen of Harvey et al. (2022).
